study system: human TLR4 (Homo sapiens, UniProt O00206)
Construct: host or cells: HEK 293
Sequence (O00206 24-839): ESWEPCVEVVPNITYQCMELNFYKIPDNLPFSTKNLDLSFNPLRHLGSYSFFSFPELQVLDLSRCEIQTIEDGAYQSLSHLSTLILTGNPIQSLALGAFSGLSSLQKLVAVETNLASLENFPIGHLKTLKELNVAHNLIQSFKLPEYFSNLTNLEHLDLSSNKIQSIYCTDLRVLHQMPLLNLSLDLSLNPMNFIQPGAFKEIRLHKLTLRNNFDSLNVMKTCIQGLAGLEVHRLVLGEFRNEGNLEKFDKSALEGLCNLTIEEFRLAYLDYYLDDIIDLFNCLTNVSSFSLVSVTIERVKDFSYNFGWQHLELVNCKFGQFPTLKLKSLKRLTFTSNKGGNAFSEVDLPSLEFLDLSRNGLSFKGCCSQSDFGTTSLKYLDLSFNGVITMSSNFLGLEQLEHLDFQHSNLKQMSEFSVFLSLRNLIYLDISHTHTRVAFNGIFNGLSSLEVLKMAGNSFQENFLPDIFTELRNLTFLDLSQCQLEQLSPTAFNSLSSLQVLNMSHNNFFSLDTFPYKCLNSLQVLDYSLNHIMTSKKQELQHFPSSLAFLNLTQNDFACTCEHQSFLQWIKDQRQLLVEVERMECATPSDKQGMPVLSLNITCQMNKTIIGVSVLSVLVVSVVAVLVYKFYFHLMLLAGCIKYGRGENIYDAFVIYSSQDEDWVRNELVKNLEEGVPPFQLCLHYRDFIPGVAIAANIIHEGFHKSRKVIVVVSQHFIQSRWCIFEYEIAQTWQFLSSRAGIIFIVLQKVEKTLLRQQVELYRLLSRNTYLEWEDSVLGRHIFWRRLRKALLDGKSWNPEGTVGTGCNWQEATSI
Sequence (Q9Y6Y9 17-160 partner limits assumed): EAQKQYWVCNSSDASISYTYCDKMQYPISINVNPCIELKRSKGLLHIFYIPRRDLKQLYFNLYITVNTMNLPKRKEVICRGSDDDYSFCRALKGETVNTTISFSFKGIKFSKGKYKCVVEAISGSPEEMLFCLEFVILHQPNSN
Assay type: cell-based

- molecule: "CCC(=O)C(CC(C)N(C)C)(c1ccccc1)c1ccccc1 (centres unmarked) [methadone, reference compound]"
  study system: "human TLR4 (Homo sapiens, UniProt O00206)"
  TLR4 agonist activity: "TLR4 agonists"
- molecule: "COc1ccc2c3c1O[C@H]1C(=O)CC[C@@]4(O)[C@@H](C2)N(C)CC[C@]314 [oxycodone, reference compound]"
  study system: "human TLR4 (Homo sapiens, UniProt O00206)"
  TLR4 agonist activity: "TLR4 agonists"
- molecule: "CCOC(=O)C1(c2ccccc2)CCN(C)CC1 [pethadine/meperidine, meperidine, reference compound]"
  study system: "human TLR4 (Homo sapiens, UniProt O00206)"
  TLR4 agonist activity: "TLR4 agonists"

Origin of values: patent US20110251229A1
